# Tested system: MMP-10 (Homo sapiens)
# Sequence (P09238 99-476): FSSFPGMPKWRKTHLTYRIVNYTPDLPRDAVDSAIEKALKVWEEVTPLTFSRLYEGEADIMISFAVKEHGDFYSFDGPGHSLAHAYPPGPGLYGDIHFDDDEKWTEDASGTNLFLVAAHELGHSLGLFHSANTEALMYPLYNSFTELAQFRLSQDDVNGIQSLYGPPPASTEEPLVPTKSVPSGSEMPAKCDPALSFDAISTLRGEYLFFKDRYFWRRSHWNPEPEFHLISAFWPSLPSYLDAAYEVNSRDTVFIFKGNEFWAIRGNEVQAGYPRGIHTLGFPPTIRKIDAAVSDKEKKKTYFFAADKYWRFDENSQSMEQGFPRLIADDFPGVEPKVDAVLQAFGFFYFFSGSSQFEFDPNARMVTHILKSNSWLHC
# Experiment: Cleavage by recombinant protease MMP-10
# Assay type: biochemical
# Assay setup: initial rate, recombinant MMP-10
Experimental endpoint: Rates of cleavage by recombinant proteases, MMP-10 (µM/h)
Use µM/h as the unit, but write only the number.

Worked cases, Rates of cleavage by recombinant proteases, MMP-10 given:
PANLVAPDP [proteolytically cleavable peptide (CP), protease substrate] :: 1.8
TQKPLGLS [proteolytically cleavable peptide (CP), protease substrate] :: 0.0
RPLALWRS [proteolytically cleavable peptide (CP), protease substrate] :: 0.0

Input line: Report Rates of cleavage by recombinant proteases, MMP-10, nothing else, for this sequence: IVGRPRHQGV [proteolytically cleavable peptide (CP), protease substrate]
Output line: 0.0

Input line: Report Rates of cleavage by recombinant proteases, MMP-10, nothing else, for this sequence: RSKYLATA [proteolytically cleavable peptide (CP), protease substrate]
Output line: 0.0

Input line: Report Rates of cleavage by recombinant proteases, MMP-10, nothing else, for this sequence: PVSLRSGS [proteolytically cleavable peptide (CP), protease substrate]
Output line: 0.0

Input line: Report Rates of cleavage by recombinant proteases, MMP-10, nothing else, for this sequence: APAGLIVPYN [proteolytically cleavable peptide (CP), protease substrate]
Output line: 1.6

====

# Tested system: MMP-9 (Homo sapiens)
# Sequence (P14780 94-707): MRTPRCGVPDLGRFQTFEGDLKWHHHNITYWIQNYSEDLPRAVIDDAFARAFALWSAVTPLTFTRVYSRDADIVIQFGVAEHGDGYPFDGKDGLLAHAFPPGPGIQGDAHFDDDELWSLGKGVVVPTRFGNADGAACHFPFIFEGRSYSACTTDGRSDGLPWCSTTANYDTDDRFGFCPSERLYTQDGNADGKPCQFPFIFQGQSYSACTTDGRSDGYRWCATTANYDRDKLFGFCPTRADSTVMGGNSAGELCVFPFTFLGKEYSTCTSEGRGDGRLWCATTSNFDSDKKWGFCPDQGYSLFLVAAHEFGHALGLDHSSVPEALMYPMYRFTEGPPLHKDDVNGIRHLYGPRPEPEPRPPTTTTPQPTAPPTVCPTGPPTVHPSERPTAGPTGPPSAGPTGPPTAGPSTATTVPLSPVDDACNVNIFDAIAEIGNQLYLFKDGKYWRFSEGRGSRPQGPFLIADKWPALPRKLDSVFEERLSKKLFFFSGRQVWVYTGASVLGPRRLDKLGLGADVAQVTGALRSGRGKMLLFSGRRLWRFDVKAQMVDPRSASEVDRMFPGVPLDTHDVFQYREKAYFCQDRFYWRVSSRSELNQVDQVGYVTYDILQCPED
# Experiment: Cleavage by recombinant protease MMP-9
# Type: biochemical
# Assay setup: initial rate, recombinant MMP-9
Experimental endpoint: Rates of cleavage by recombinant proteases, MMP-9 (µM/h)
Use µM/h as the unit, but write only the number.

Worked cases, Rates of cleavage by recombinant proteases, MMP-9 given:
RSKYLATA [proteolytically cleavable peptide (CP), protease substrate] :: 0.0
PVSLRSGS [proteolytically cleavable peptide (CP), protease substrate] :: 6.5
APAGLIVPYN [proteolytically cleavable peptide (CP), protease substrate] :: 1.8
PANLVAPDP [proteolytically cleavable peptide (CP), protease substrate] :: 8.8
TQKPLGLS [proteolytically cleavable peptide (CP), protease substrate] :: 0.3
IVGRPRHQGV [proteolytically cleavable peptide (CP), protease substrate] :: 0.0

Input line: Report Rates of cleavage by recombinant proteases, MMP-9, nothing else, for this sequence: RPLALWRS [proteolytically cleavable peptide (CP), protease substrate]
Output line: 0.2

====

// values below are reported Rates of cleavage by recombinant proteases, MMP-7
# Tested system: MMP-7 (Homo sapiens)
# Sequence (P09237 95-267): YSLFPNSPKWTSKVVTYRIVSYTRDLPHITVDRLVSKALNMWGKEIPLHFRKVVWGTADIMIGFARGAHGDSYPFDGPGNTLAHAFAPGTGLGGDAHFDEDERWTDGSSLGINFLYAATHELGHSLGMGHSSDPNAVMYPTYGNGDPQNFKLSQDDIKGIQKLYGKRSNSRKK
# Experiment: Cleavage by recombinant protease MMP-7
# Type: biochemical
# Assay setup: initial rate, recombinant MMP-7
Use µM/h as the unit, but write only the number.

Worked cases, Rates of cleavage by recombinant proteases, MMP-7 given:
PVSLRSGS [proteolytically cleavable peptide (CP), protease substrate] :: 0.2
TQKPLGLS [proteolytically cleavable peptide (CP), protease substrate] :: 1.8
RSKYLATA [proteolytically cleavable peptide (CP), protease substrate] :: 0.0

Input line: State, for MMP-7 (Homo sapiens), measured Rates of cleavage by recombinant proteases, MMP-7 of the sequence listed here: RPLALWRS [proteolytically cleavable peptide (CP), protease substrate]
Output line: 0.2

====

# Tested system: MMP-8 (Homo sapiens)
# Sequence (P22894 101-467): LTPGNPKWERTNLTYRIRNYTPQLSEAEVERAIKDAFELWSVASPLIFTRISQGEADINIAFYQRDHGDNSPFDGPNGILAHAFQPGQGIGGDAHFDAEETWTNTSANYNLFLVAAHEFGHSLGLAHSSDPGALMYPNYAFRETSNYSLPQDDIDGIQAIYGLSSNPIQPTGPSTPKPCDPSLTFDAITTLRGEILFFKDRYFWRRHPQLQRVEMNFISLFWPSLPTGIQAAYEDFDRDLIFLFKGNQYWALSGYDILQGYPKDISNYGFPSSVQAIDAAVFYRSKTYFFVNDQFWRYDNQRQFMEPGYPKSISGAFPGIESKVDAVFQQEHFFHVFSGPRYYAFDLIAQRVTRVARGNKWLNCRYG
# Experiment: Cleavage by recombinant protease MMP-8
# Type: biochemical
# Assay setup: initial rate, recombinant MMP-8
// values below are reported Rates of cleavage by recombinant proteases, MMP-8
Use µM/h as the unit, but write only the number.

TQKPLGLS [proteolytically cleavable peptide (CP), protease substrate] :: 0.1
RPLALWRS [proteolytically cleavable peptide (CP), protease substrate] :: 0.2
PANLVAPDP [proteolytically cleavable peptide (CP), protease substrate] :: 7.2
IVGRPRHQGV [proteolytically cleavable peptide (CP), protease substrate] :: 0.0
RSKYLATA [proteolytically cleavable peptide (CP), protease substrate] :: 0.0

Input line: Report Rates of cleavage by recombinant proteases, MMP-8, nothing else, for this sequence: PVSLRSGS [proteolytically cleavable peptide (CP), protease substrate]
Output line: 0.1

Input line: Report Rates of cleavage by recombinant proteases, MMP-8, nothing else, for this sequence: APAGLIVPYN [proteolytically cleavable peptide (CP), protease substrate]
Output line: 0.5

====

// values below are reported Rates of cleavage by recombinant proteases, MMP-14
# Tested system: MMP-14 (Homo sapiens, UniProt P50281)
# Experiment: Cleavage by recombinant protease MMP-14
# Format: biochemical
# Assay setup: initial rate, recombinant MMP-14
Use µM/h as the unit, but write only the number.

Worked cases, Rates of cleavage by recombinant proteases, MMP-14 given:
APAGLIVPYN [proteolytically cleavable peptide (CP), protease substrate] :: 2.1
TQKPLGLS [proteolytically cleavable peptide (CP), protease substrate] :: 0.1
PVSLRSGS [proteolytically cleavable peptide (CP), protease substrate] :: 0.0
IVGRPRHQGV [proteolytically cleavable peptide (CP), protease substrate] :: 0.0
RPLALWRS [proteolytically cleavable peptide (CP), protease substrate] :: 0.0

Input line: Report Rates of cleavage by recombinant proteases, MMP-14, nothing else, for this sequence: RSKYLATA [proteolytically cleavable peptide (CP), protease substrate]
Output line: 0.0

Input line: Report Rates of cleavage by recombinant proteases, MMP-14, nothing else, for this sequence: PANLVAPDP [proteolytically cleavable peptide (CP), protease substrate]
Output line: 0.7
